test: Cytotoxicity against human Hepatocyte cultured as 3D spheroids incubated for 14 days by CellTiter-Glo luminescence assay; assay type: toxicity, cell-based; conditions: hepatocytes cultured as 3D spheroids
OUTCOME MEASURE: IC50 at 14 days

| SUBSTANCE SMILES | MEASUREMENT |
| --- | --- |
| CN(C)S(=O)(=O)c1ccc(N2CC[C@H](O)C2)c(-c2cc3ccccc3[nH]2)c1 | < 1200 nM |
| CN(C)S(=O)(=O)c1ccc(N2CC[C@@H](O)C2)c(-c2cc3ccccc3[nH]2)c1 | 6300 nM |
| O=C([C@H]1CCN1S(=O)(=O)c1ccc(N2CCC(F)(F)C2)c(-c2cc3ccccc3[nH]2)c1)N1CCOCC1 | 2500 nM |
| Cc1cnc(NC(=O)c2cc(S(=O)(=O)N(C)C)ccc2N2CCCC2)s1 | 20000 nM |
| O=C([C@@H]1CCN1S(=O)(=O)c1ccc(N2CCC(F)(F)C2)c(-c2cc3ccccc3[nH]2)c1)N1CCOCC1 | < 1200 nM |
| C[S@@](=N)(=O)c1ccc(N2CC[C@H](O)C2)c(-c2cc3ccccc3[nH]2)c1 | < 1200 nM |
